Tested on: Staphylococcus aureus
Experiment: Antibacterial activity against Staphylococcus aureus MTCC 1430 at 250 ug/ml after 48 hr by cup-plate method
Type: functional
Conditions: MTCC 1430, 48 h, read-out: DIZ
measure-name: zone of inhibition at 250 µg/mL (mm)
Answer with a number only, understood to be in mm.

- molecule: "O=[N+]([O-])c1ccc(C2CC(c3cccc4ccccc34)=NN2c2ccc([N+](=O)[O-])cc2[N+](=O)[O-])cc1 (configuration not stated)"
  obs-value: 8

Query string: Assign zone of inhibition at 250 µg/mL to the following record: NC(=O)N1N=C(c2cccc3ccccc23)CC1c1ccc([N+](=O)[O-])cc1 (configuration not stated)
Result string: 9

###

Tested on: Pseudomonas fluorescens
Test: Antibacterial activity against Pseudomonas fluorescens MTCC 2421 at 500 ug/ml after 48 hr by cup-plate method
Type: functional
Settings: MTCC 2421, 48 h, read-out: DIZ
measure-name: zone of inhibition at 500 µg/mL (mm)
Answer with a number only, understood to be in mm.

- compound: "O=[N+]([O-])c1ccc(C2CC(c3cccc4ccccc34)=NN2c2ccccc2)cc1 (configuration not stated)"
  test-target: "Pseudomonas fluorescens"
  uom: "mm"
  zone of inhibition at 500 µg/mL: 10

Query string: Assign zone of inhibition at 500 µg/mL to the following record: O=[N+]([O-])c1ccc(C2CC(c3cccc4ccccc34)=NN2c2ccc([N+](=O)[O-])cc2)cc1 (configuration not stated)
Result string: 11

Query string: Assign zone of inhibition at 500 µg/mL to the following record: NC(=S)N1N=C(c2cccc3ccccc23)CC1c1ccc([N+](=O)[O-])cc1 (configuration not stated)
Result string: 18

Query string: Assign zone of inhibition at 500 µg/mL to the following record: NC(=O)N1N=C(c2cccc3ccccc23)CC1c1ccc([N+](=O)[O-])cc1 (configuration not stated)
Result string: 10

Query string: Assign zone of inhibition at 500 µg/mL to the following record: O=[N+]([O-])c1ccc(C2CC(c3cccc4ccccc34)=NN2c2ccccc2[N+](=O)[O-])cc1 (configuration not stated)
Result string: 13

Query string: Assign zone of inhibition at 500 µg/mL to the following record: O=[N+]([O-])c1ccc(C2CC(c3cccc4ccccc34)=NN2)cc1 (configuration not stated)
Result string: 11

Query string: Assign zone of inhibition at 500 µg/mL to the following record: O=[N+]([O-])c1ccc(C2CC(c3cccc4ccccc34)=NN2c2ccc([N+](=O)[O-])cc2[N+](=O)[O-])cc1 (configuration not stated)
Result string: 18

###

System: Escherichia coli
Experiment: Antibacterial activity against Escherichia coli MTCC 1573 at 100 ug/ml after 48 hr by cup-plate method
Assay type: functional
Settings: MTCC 1573, 48 h, read-out: DIZ
// zone of inhibition at 100 µg/mL lookup, one value per entry
Answer with a number only, understood to be in mm.

Example results:
- compound: "O=[N+]([O-])c1ccc(C2CC(c3cccc4ccccc34)=NN2c2ccc([N+](=O)[O-])cc2)cc1 (stereo unspecified)"
  zone of inhibition at 100 µg/mL (mm): 10
- compound: "O=[N+]([O-])c1ccc(C2CC(c3cccc4ccccc34)=NN2c2ccccc2)cc1 (stereo unspecified)"
  zone of inhibition at 100 µg/mL (mm): 9
- compound: "O=[N+]([O-])c1ccc(C2CC(c3cccc4ccccc34)=NN2c2ccc([N+](=O)[O-])cc2[N+](=O)[O-])cc1 (stereo unspecified)"
  zone of inhibition at 100 µg/mL (mm): 9
- compound: "O=[N+]([O-])c1ccc(C2CC(c3cccc4ccccc34)=NN2c2ccccc2[N+](=O)[O-])cc1 (stereo unspecified)"
  zone of inhibition at 100 µg/mL (mm): 9
- compound: "NC(=S)N1N=C(c2cccc3ccccc23)CC1c1ccc([N+](=O)[O-])cc1 (stereo unspecified)"
  zone of inhibition at 100 µg/mL (mm): 8

Here is another compound to look at.
Query string: Assign zone of inhibition at 100 µg/mL to the following record: NC(=O)N1N=C(c2cccc3ccccc23)CC1c1ccc([N+](=O)[O-])cc1 (stereo unspecified)
Result string: 9

Cited source for all entries: ChEMBL document CHEMBL3044945
